Protein target, amino acids: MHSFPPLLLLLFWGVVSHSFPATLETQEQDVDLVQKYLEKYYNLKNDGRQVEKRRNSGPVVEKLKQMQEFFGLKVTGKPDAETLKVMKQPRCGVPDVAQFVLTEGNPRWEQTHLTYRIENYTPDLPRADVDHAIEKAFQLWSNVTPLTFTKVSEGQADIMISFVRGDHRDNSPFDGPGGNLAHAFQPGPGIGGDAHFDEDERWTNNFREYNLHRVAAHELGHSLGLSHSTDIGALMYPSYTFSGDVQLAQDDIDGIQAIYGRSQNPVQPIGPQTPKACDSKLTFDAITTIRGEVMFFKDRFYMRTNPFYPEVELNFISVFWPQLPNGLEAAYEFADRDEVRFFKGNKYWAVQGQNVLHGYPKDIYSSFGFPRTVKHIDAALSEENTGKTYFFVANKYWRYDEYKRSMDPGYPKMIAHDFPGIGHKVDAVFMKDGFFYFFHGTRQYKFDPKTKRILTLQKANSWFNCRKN
Reported IC50 on the protein given by its sequence for assorted compounds, compiled from publications.
Supply the numeric figure in µM, leaving out any unit text.

Some solved cases for reference:
[[record]]
smiles_string = "CC(C)C[C@H]1C(=O)N[C@H](C(=O)NCCc2ccc(S(N)(=O)=O)cc2)Cc2ccc(cc2)OCCCC[C@@H]1C(=O)NO"
quantity_measured = "IC50"
observed = 0.003

[[record]]
smiles_string = "CC#CCOC(=O)c1cccc(=O)[nH]1"
quantity_measured = "IC50"
observed = 50

[[record]]
smiles_string = "Cc1ccc(NC(=O)/C=C/c2ccc(O)c(O)c2)cc1"
quantity_measured = "IC50"
observed = 4.83


From here, focus on the item given below.
query: What value of IC50 has been recorded for this entry: `C=CC[C@](C)(C(=O)NO)[C@@H](CC(C)C)C(=O)N[C@@H](Cc1ccccc1)C(=O)NC`
result: 0.0031
